target: human LPAR1 (Homo sapiens (Human), UniProt Q92633); test: LPAR1 intracellular calcium mobilization assay (antagonist mode, FLIPR); type: cell-based; conditions: CHO-K1 EDG2 cells expressing human LPAR1, LPA 18:2 at EC80 (100 nM), test compound 0.5 nM to 10 μM
Sequence (Q92633 whole entry): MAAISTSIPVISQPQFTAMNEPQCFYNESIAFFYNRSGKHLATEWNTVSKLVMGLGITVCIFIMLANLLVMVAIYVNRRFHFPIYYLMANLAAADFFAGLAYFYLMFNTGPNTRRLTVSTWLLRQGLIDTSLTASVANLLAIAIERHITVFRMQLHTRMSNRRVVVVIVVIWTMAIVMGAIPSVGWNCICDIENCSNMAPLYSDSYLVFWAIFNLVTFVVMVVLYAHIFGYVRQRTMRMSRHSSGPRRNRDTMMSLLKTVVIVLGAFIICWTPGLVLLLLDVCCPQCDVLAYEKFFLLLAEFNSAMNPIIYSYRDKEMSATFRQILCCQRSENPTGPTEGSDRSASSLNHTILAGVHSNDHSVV
Listed next: entries and their corresponding log10(EC50).
Give log10 of EC50, with EC50 taken in nM.

Here are 6 molecules together with their reported answers.
Molecule	Quantitative Result
C[C@@H](OC(=O)Nc1c(-c2ccc(NC(=O)C3(C#N)CC4(CCC4)C3)cn2)nnn1C)c1cccnc1Cl [Compound 79]	1.20
CC1CC1(C#N)C(=O)Nc1ccc(-c2nnn(C)c2NC(=O)O[C@H](C)c2cccnc2Cl)nc1 (stereo partly shown) [Compound 148]	1.48
C[C@@H](OC(=O)Nc1c(-c2ccc(NC(=O)C3(C#N)CCNCC3)cn2)nnn1C)c1cc(F)cnc1F [Compound 299]	3.70
C[C@@H](OC(=O)Nc1c(-c2ccc(NC(=O)C34CC(O)(C3)C4)cn2)nnn1C)c1cccnc1Cl [Compound 117]	3.06
C[C@@H](OC(=O)Nc1c(-c2ccc(NC(=O)C3(C(F)F)CNC3)cn2)nnn1C)c1cc(F)cnc1F [Compound 298]	3.10
C[C@@H](OC(=O)Nc1c(-c2ccc(NC(=O)C3(C(F)F)CC3)cn2)nnn1C)c1cc(F)cnc1Cl [Compound 166]	2.38

Consider now this further molecule.
Record C[C@@H](OC(=O)Nc1c(-c2ncc(NC(=O)C34CC(F)(C3)C4)cn2)nnn1C)c1cc(F)cnc1Cl [Compound 330] , field log10(EC50): 2.78

Cited source: patent US11912686B2
